These entries and their values trace back to the supplement of paper PMC7877785.

Reported self-splicing fitness (ln) by item:
# test.description: self-splicing fitness, log relative to wild type (ln ratio); higher = more splicing; Tetrahymena group I intron in knt gene, E. coli kanamycin selection, DiMSum; sequences stand for … in CUCUCU…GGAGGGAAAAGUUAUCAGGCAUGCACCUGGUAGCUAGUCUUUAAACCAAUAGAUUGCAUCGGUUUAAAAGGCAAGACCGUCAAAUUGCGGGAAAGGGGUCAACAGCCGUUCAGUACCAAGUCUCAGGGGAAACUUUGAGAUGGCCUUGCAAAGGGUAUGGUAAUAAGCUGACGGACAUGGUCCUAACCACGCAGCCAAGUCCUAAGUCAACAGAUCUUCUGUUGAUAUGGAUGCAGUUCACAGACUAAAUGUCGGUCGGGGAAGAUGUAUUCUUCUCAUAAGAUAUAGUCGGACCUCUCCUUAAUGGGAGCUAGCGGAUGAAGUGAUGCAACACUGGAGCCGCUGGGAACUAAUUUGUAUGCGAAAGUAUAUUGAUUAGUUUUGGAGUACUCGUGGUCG;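 further: selection with 25 µg/mL kanamycin versus none on LB agar overnight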
# stated.conditions: 37 °C
The response must contain the number and no unit.

Worked cases, self-splicing fitness (ln) given:
- sequence: "UUUGAGCAAUAUUACGGGCG"
  self-splicing fitness (ln): -2.16
- sequence: "GUAAAGCAAUAUUACGUAUA"
  self-splicing fitness (ln): -0.524
- sequence: "AUGGAGCAAUAUUACGCUAG"
  self-splicing fitness (ln): -1.66
- sequence: "ACUAAGCAAUAUUACGGACU"
  self-splicing fitness (ln): 0.436
- sequence: "GGUGAGCAAUAUUACGAUUU"
  self-splicing fitness (ln): -0.612
- sequence: "CGCCAGCAAUAUUACGCAAU"
  self-splicing fitness (ln): -2.63
- sequence: "AGCUAGCAAUAUUACGAACC"
  self-splicing fitness (ln): -0.082
- sequence: "AAUGAGCAAUAUUACGUAGU"
  self-splicing fitness (ln): -2.22
- sequence: "AAGCAGCAAUAUUACGCCUU"
  self-splicing fitness (ln): -1.35
- sequence: "CACGAGCAAUAUUACGAUAC"
  self-splicing fitness (ln): -2.73

Lab book: self-splicing fitness (ln) of CAUCAGCAAUAUUACGUAAG noted as 0.711

Lab book: self-splicing fitness (ln) of UAUUAGCAAUAUUACGCACU noted as -1.12

Lab book: self-splicing fitness (ln) of GUCCAGCAAUAUUACGCGUA noted as 0.185

Lab book: self-splicing fitness (ln) of GAAUAGCAAUAUUACGUCUA noted as -0.42

Lab book: self-splicing fitness (ln) of CUCUAGCAAUAUUACGUCGA noted as -0.879

* * *

# test.description: self-splicing fitness, log relative to wild type (ln ratio); higher = more splicing; Tetrahymena group I intron in knt gene, E. coli kanamycin selection, DiMSum; sequences stand for … in CUCUCU…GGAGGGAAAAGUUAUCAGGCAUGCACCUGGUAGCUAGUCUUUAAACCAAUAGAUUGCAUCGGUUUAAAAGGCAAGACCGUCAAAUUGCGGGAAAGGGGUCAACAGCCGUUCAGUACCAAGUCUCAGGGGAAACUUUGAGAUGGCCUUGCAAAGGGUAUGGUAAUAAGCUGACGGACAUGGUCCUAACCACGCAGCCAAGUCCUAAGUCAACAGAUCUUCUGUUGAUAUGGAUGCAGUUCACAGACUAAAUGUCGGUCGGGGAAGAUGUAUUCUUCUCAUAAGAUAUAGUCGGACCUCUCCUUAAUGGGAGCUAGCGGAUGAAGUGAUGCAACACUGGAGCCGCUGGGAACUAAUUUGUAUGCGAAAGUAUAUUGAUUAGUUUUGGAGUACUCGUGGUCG
# stated.conditions: 37 °C
experimental.readout: self-splicing fitness (ln)
The response must contain the number and no unit.

- sequence: "AUACAGCAAUAUUACGCUCC"
  self-splicing fitness (ln): -0.769
- sequence: "ACGUAGCAAUAUUACGAGCA"
  self-splicing fitness (ln): -1.82
- sequence: "AUAGAGCAAUAUUACGUCUC"
  self-splicing fitness (ln): -0.745
- sequence: "GCUGAGCAAUAUUACGAGGA"
  self-splicing fitness (ln): -2.48
- sequence: "AGUUAGCAAUAUUACGUACC"
  self-splicing fitness (ln): -0.376

Lab book: self-splicing fitness (ln) of GGAAAGCAAUAUUACGCUUU noted as -2.56

Lab book: self-splicing fitness (ln) of CGCGAGCAAUAUUACGAUAG noted as -0.593

Lab book: self-splicing fitness (ln) of UCGAAGCAAUAUUACGUUCA noted as -1.18

Lab book: self-splicing fitness (ln) of CCCGAGCAAUAUUACGACCG noted as -2.24

Lab book: self-splicing fitness (ln) of GUGAAGCAAUAUUACGGAUC noted as -0.286

Lab book: self-splicing fitness (ln) of CGUGAGCAAUAUUACGGGCU noted as -2.67

* * *

# test.description: self-splicing fitness, log relative to wild type (ln ratio); higher = more splicing; Tetrahymena group I intron in knt gene, E. coli kanamycin selection, DiMSum; sequences stand for … in CUCUCU…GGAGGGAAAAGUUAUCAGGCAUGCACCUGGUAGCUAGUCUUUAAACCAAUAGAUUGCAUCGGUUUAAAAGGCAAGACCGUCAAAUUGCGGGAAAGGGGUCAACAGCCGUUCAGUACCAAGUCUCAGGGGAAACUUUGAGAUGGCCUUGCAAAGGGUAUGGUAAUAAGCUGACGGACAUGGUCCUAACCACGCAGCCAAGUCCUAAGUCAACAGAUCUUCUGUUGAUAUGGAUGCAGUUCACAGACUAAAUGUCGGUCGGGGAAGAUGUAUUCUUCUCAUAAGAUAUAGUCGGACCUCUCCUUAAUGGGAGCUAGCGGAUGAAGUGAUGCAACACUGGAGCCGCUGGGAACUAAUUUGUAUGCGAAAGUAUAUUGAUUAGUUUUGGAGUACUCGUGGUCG
# stated.conditions: 30 °C
Is self-splicing fitness (ln) at least -3? Then Met. If not, Not met.

- sequence: "CUUCAGCAAUAUUACGUGGU"
  class.assignment: "Not met"
- sequence: "AUUCAGCAAUAUUACGAUGG"
  class.assignment: "Met"
- sequence: "ACUAAGCAAUAUUACGAACU"
  class.assignment: "Met"
- sequence: "CAGGAGCAAUAUUACGAAUG"
  class.assignment: "Not met"
- sequence: "ACACAGCAAUAUUACGGUGG"
  class.assignment: "Met"

[ask] I'd appreciate it if you could say whether CCCCAGCAAUAUUACGGCAC has self-splicing fitness (ln) at least equal to -3.
[reply] Not met

[ask] I'd appreciate it if you could say whether AUGUAGCAAUAUUACGGUCU has self-splicing fitness (ln) at least equal to -3.
[reply] Met

[ask] I'd appreciate it if you could say whether UGCCAGCAAUAUUACGAUCA has self-splicing fitness (ln) at least equal to -3.
[reply] Met

[ask] I'd appreciate it if you could say whether UGUGAGCAAUAUUACGCUGG has self-splicing fitness (ln) at least equal to -3.
[reply] Met

[ask] I'd appreciate it if you could say whether UCACAGCAAUAUUACGCCGA has self-splicing fitness (ln) at least equal to -3.
[reply] Met

[ask] I'd appreciate it if you could say whether GAACAGCAAUAUUACGUCCA has self-splicing fitness (ln) at least equal to -3.
[reply] Met

[ask] I'd appreciate it if you could say whether GAUUAGCAAUAUUACGGAUC has self-splicing fitness (ln) at least equal to -3.
[reply] Met

[ask] I'd appreciate it if you could say whether AACGAGCAAUAUUACGGGCC has self-splicing fitness (ln) at least equal to -3.
[reply] Not met

[ask] I'd appreciate it if you could say whether GAAGAGCAAUAUUACGGCGU has self-splicing fitness (ln) at least equal to -3.
[reply] Met

[ask] I'd appreciate it if you could say whether UUAAAGCAAUAUUACGGAAU has self-splicing fitness (ln) at least equal to -3.
[reply] Not met

* * *

# test.description: self-splicing fitness, log relative to wild type (ln ratio); higher = more splicing; Tetrahymena group I intron in knt gene, E. coli kanamycin selection, DiMSum; sequences stand for … in CUCUCU…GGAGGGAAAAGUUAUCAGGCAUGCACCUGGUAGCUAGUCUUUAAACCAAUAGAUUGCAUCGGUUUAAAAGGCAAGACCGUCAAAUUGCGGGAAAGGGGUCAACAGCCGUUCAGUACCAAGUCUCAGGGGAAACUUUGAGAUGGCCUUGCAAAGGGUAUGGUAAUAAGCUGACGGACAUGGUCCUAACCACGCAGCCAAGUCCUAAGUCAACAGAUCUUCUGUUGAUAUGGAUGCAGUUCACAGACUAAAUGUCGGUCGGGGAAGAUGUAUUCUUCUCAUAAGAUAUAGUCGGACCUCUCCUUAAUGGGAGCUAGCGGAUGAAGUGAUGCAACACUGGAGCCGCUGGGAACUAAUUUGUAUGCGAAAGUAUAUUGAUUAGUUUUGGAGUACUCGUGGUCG
# stated.conditions: 30 °C
experimental.readout: self-splicing fitness (ln)
The response must contain the number and no unit.

Worked cases, self-splicing fitness (ln) given:
- sequence: "AACGAGCAAUAUUACGAUCC"
  self-splicing fitness (ln): -2.01
- sequence: "UUCCAGCAAUAUUACGUGUG"
  self-splicing fitness (ln): -0.736

Here is another sequence to look at.
Lab book: self-splicing fitness (ln) of AGUGAGCAAUAUUACGGACU noted as -1.28
